- Tested on: HEK293-EBNA
- assay.notes: Selectivity index, ratio of Ki for human CB1R transfected in HEK293EBNA cell membrane to ratio of Ki for human CB2R transfected in HEK293EBNA cell membrane incubated for 90 mins by Microbeta TriLux based luminescence analysis
Tick T if Ratio Ki is 1 or greater. Tick F if Ratio Ki is less than 1.

Answered cases to consult:
>>> df
                           structure_smiles  assigned_category
0  COc1ccc(COc2n[nH]c3ccc([N+](=O)[O-])cc23)cc1                  T
1  Cn1nc(OCc2cccc3ccccc23)c2cc([N+](=O)[O-])ccc21                  T
2  c1ccc2cc(COc3nn(CCC4CCCCC4)c4ccccc34)ccc2c1                  F
3  O=[N+]([O-])c1ccc2c(c1)c(OCC1CCCCC1)nn2Cc1ccccc1                  T

Data request: Check if Ratio Ki >= 1 (inclusive). Item: c1ccc2c(COc3n[nH]c4ccccc34)cccc2c1
Data returned: T

Data request: Could you tell me if the measured Ratio Ki of CCCn1nc(OCc2ccc3ccccc3c2)c2cc([N+](=O)[O-])ccc21 reaches 1 or more?
Data returned: F

Data request: # check: Ratio Ki of Cn1nc(OCc2ccc3ccccc3c2)c2cc([N+](=O)[O-])ccc21 is greater than or equal to 1
Data returned: T
